Target: Regulator of G-protein signaling 7 (Homo sapiens) (UniProt P49802)
Sequence (P49802 whole entry, looked up): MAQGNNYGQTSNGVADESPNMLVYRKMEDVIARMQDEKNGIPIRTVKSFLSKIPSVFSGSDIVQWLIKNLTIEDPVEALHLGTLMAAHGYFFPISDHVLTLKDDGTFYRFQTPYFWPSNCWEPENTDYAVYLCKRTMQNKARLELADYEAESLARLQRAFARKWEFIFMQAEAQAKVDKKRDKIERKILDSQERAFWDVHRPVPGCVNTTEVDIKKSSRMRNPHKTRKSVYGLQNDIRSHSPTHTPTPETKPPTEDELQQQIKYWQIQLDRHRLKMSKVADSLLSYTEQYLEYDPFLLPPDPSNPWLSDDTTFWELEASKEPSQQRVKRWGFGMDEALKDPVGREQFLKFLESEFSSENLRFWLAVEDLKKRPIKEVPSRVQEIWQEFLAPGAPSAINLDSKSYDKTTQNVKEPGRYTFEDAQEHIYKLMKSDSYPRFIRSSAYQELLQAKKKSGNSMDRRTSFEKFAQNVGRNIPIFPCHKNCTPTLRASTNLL
Assay: RGS7-Galphao binding modulators, dose response, biochemical, multiplexed bead flow cytometry (AID 1871)
Conditions: bead-based flow cytometry, measured here: Ki for RGS7-Galphao
Would you mind telling me the reported Ki of each entry?
Number only, in µM; omit the unit.

Can you look up Ki on Regulator of G-protein signaling 7 (Homo sapiens) (UniProt P49802) for O=C1CCC(=O)N(O)CCCCCNC(=O)CCC(=O)N(O)CCCCCNC(=O)CCC(=O)N(O)CCCCCN1 ?
2.01

# value lookup — system Regulator of G-protein signaling 7 (Homo sapiens) (UniProt P49802), readout Ki, item CN(C)[C@@H]1C(=O)C(C(=O)NCN2CCCC2)=C(O)[C@@]2(O)C(=O)C3=C(O)c4c(O)cccc4[C@@](C)(O)C3CC12 (some centres undefined)
3.7

Tell me reported Ki for CCOc1ccccc1-c1c2cc(O)c(=O)cc-2oc2cc(O)c(O)cc12 , tested with Regulator of G-protein signaling 7 (Homo sapiens) (UniProt P49802).
6.17

Item: CCNc1ccc2noc3c2c1C(=O)c1ccccc1-3 Test system: Regulator of G-protein signaling 7 (Homo sapiens) (UniProt P49802) Read-out: Ki Value: ?
22.2

// lookup Ki | system=Regulator of G-protein signaling 7 (Homo sapiens) (UniProt P49802) | key= O=c1c2ccccc2sn1-c1ccc(S(=O)(=O)N2CCCC2)cc1
0.53

// map O=C1OCC2OC(O)C(O)C(O)C2OC(=O)c2cc(O)c(O)c(O)c2-c2c(O)c(O)c3oc(=O)c4c(c(O)c(O)c5oc(=O)c2c3c54)-c2c1cc(O)c(O)c2O (centres undefined) to recorded Ki (system: Regulator of G-protein signaling 7 (Homo sapiens) (UniProt P49802))
1.75

Form field - read-out: Ki; system: Regulator of G-protein signaling 7 (Homo sapiens) (UniProt P49802); submitted item: CCCNC(=O)Cn1sc2nc(C)cc(C)c2c1=O
4.08

Give Ki (Regulator of G-protein signaling 7 (Homo sapiens) (UniProt P49802)) of the following compound: CN=c1scc(C)n1/N=C/c1ccc(O)c(O)c1O
8.75

Request - read-out Ki | tested on Regulator of G-protein signaling 7 (Homo sapiens) (UniProt P49802) | compound CCN(CC)S(=O)(=O)c1cccc(C(=O)N/N=C/c2ccc(O)c(O)c2O)c1
3.3
